biological target: Dgt–Gp1.2 complex (Escherichia coli; Escherichia phage T7, UniProt P03780+P15723); experiment: PNP/xanthine oxidase coupled dGTPase assay, A297
Sequence (P15723 whole entry): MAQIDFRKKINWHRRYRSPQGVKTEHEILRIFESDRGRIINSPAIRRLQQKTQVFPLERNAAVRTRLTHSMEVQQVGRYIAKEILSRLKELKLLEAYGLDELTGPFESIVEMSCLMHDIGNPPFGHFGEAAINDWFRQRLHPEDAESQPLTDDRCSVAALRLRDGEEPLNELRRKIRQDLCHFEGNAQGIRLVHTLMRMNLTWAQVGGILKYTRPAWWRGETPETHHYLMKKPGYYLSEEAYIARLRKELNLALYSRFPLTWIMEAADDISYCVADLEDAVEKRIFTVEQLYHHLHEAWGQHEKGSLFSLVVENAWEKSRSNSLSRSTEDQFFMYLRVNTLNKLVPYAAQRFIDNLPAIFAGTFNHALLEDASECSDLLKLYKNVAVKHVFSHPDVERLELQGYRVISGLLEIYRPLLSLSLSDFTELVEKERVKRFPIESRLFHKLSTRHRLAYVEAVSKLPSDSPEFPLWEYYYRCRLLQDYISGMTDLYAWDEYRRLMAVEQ
Sequence (P03780 2-85): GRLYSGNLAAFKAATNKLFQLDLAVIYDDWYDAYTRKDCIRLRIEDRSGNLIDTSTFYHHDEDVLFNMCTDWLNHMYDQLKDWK
assay_metric: pIC50
Entry type: numeric. Quantity: pIC50, the -log10 of concentration in molar units.

q: Output measured pIC50 for this item: Nc1nc2c(ncn2[C@@H]2O[C@H](COP(=O)(O)OP(=O)(O)OP(=O)(O)O)[C@@H](O)[C@H]2O)c(=O)[nH]1 [GTP]
a: 6.51

Source of measurements: paper PMC9478638
